growth for assorted compounds
tested on: MDA-MB-468 breast; assay: NCI-60 one-dose screen, 48 h (100 = growth as untreated, 0 = no growth, -100 = all killed); details: 10 µM unless noted
About 83,000 compounds went through this panel and 20% of them were active in at least one assay; those are over-represented in the sample as a whole.
Could you give me the number in %? Just the number is fine.

CC[C@]12C=CCN3CC[C@]4(C(=C(C(=O)OC)C1)Nc1cc(OC)c(OC(C)=O)cc14)[C@@H]32 | 50.3

For the compound `CC(C)(C)N(Cc1ccccc1)N=O` , report growth.
93.2

* * *

system: MDA-MB-468 breast; assay: NCI-60 one-dose screen, 48 h; details: 10 µM unless noted
This is part of a sample that, as a whole, favours compounds with a hit. Of some 83,000 tested, about 20% had one in any assay. Active and inactive are the calls of the source. The calls were made as follows: active = growth percent below 10; inactive = the rest.
Return exactly one item of active, inactive

Cn1cc(-c2csc(-c3cn(CCN4CCOCC4)c4ccccc34)n2)c2cccnc21 | inactive
Cc1c(O)c(CN(CCCl)CCCl)cc(CN(CCCl)CCCl)c1O | inactive
CCCCCCCCCCCCCCCCCC1OC[C@H](COC(=O)O[C@@H](C(=O)O[C@H]2C[C@@]3(O)[C@@H](OC(=O)c4ccccc4)[C@@H]4[C@]5(OC(C)=O)CO[C@@H]5C[C@H](O)[C@@]4(C)C(=O)[C@H](OC(C)=O)C(=C2C)C3(C)C)[C@@H](NC(=O)c2ccccc2)c2ccccc2)O1 (stereo partly drawn) | active
N[C@@H](CCC(=O)CCl)C(=O)O | inactive
CC1(C)N=C(N)N=C(N)N1c1ccc(OCCCNC(=O)Nc2ccc(S(=O)(=O)F)cc2)c(Cl)c1 | inactive

Test call, this compound: `Cn1cnnc1[S-].[Au+].c1ccc([PH+](c2ccccc2)c2ccccc2)cc1`
active

Test call, this compound: `O=[N+]([O-])c1ccccc1N1CCNCC1`
inactive

Test call, this compound: `CC(C)=CCC/C(C)=C/C=N\N=C(/N)N[N+](=O)[O-]`
inactive
